Reference source for all entries: patent US12319679B2

Item-by-item account of IC50
# system.name: Recombinant full length human OGA enzyme (Homo sapiens, UniProt O60502)
# Construct: Recombinant full length human OGA enzyme was purchased from Origene
# measurement.description: OGA Enzyme Inhibition Biochemical Assay
# details: 1 nM OGA, 100 μM 4-MUGlcNAc (Km), pH 6.4, 90 minutes at room temperature; 10-point dose-response starting from 20 μM

{"compound": "CC(=O)Nc1ncc(CN2C[C@@H](COc3cc(C)nc(C)c3)NC[C@@H]2C)s1", "system.name": "Recombinant full length human OGA enzyme (Homo sapiens, UniProt O60502)", "IC50": "21 nM"}
{"compound": "COc1cc(CC2CN(Cc3cnc(NC(C)=O)s3)CCN2)ccn1 (single isomer, unassigned) [Example 2-22 Peak 1]", "system.name": "Recombinant full length human OGA enzyme (Homo sapiens, UniProt O60502)", "IC50": "18000 nM"}
{"compound": "CC(=O)Nc1ncc(CN2CCOCC(Cc3cc(C)nc(C)c3)C2)s1 (racemic) [Example 1-42]", "system.name": "Recombinant full length human OGA enzyme (Homo sapiens, UniProt O60502)", "IC50": "19 nM"}
{"compound": "CC(=O)Nc1ncc(CN2C[C@@H](Cc3ccnc(C)c3)NC[C@@H]2C)s1", "system.name": "Recombinant full length human OGA enzyme (Homo sapiens, UniProt O60502)", "IC50": "7.4 nM"}

---

# system.name: Recombinant full length human OGA enzyme (Homo sapiens, UniProt O60502)
# Construct: Recombinant full length human OGA enzyme was purchased from Origene
# measurement.description: OGA Enzyme Inhibition Biochemical Assay
# details: 1 nM OGA, 100 μM 4-MUGlcNAc (Km), pH 6.4, 90 minutes at room temperature; 10-point dose-response starting from 20 μM

{"compound": "CC(=O)Nc1ncc(CN2CCCOC(Cc3cc(C)nc(C)c3)C2)s1 (single isomer, unassigned) [Example 1-37 Peak 1]", "output.unit": "nM", "IC50": 31}
{"compound": "COc1nccc(CC2CN(Cc3cnc(NC(C)=O)s3)CCN2)c1F (single isomer, unassigned) [Example 4-18 Peak 2]", "output.unit": "nM", "IC50": 1500}
{"compound": "CC(=O)Nc1ncc(CN2CCOCC(Cc3ncc(F)cn3)C2)s1 (racemic) [Example 1-44]", "output.unit": "nM", "IC50": 32}
{"compound": "COc1cc(CC2COCCN(Cc3cnc(NC(C)=O)s3)C2)ccn1 (racemic) [Example 1-46]", "output.unit": "nM", "IC50": 42}
{"compound": "CC(=O)Nc1ncc(CN2CCO[C@H](Cc3ncc(F)cn3)C2)s1 [Example 1-1]", "output.unit": "nM", "IC50": 16}
{"compound": "CC(=O)Nc1ncc(CN2CCO[C@H](Cc3ccnc(C(F)(F)F)n3)C2)s1 [Example 1-9]", "output.unit": "nM", "IC50": 1500}
{"compound": "CC(=O)Nc1ncc(CN2C[C@@H](Cc3ncc(F)cn3)OC[C@H]2C)s1 [Example 1-27]", "output.unit": "nM", "IC50": 6600}
{"compound": "COc1cc(C[C@@H]2CN(Cc3cnc(NC(C)=O)s3)CCO2)ncn1 [Example 1-8]", "output.unit": "nM", "IC50": 130}

---

Measured pIC50 of individual entries
# system.name: Recombinant full length human OGA enzyme (Homo sapiens)
# Construct: Recombinant full length human OGA enzyme was purchased from Origene; purchased Origene
# Sequence (O60502 1-916): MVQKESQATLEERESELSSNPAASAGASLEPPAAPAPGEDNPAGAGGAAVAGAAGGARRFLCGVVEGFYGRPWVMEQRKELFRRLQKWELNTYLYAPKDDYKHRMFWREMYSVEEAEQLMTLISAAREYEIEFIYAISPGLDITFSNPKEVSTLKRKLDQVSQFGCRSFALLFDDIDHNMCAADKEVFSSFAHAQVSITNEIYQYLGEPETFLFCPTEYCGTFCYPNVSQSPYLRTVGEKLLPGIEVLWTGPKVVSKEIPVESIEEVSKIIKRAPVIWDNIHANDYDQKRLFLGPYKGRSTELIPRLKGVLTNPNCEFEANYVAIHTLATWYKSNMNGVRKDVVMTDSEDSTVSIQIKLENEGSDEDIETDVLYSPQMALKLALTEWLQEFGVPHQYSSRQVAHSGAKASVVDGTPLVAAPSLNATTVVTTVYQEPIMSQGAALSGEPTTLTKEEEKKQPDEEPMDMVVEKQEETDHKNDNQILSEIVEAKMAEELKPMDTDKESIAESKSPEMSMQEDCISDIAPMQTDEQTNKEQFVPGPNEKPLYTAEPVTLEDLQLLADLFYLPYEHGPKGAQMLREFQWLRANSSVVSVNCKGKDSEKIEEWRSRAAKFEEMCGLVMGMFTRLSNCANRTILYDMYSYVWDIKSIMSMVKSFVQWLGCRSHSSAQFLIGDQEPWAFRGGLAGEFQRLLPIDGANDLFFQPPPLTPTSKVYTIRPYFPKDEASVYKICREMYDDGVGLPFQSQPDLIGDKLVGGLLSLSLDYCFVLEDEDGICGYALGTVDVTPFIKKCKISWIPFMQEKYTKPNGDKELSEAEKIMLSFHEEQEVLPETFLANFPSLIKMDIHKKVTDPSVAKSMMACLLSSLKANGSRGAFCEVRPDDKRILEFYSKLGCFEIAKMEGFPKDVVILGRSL
# measurement.description: OGA Enzyme Inhibition Biochemical Assay
# details: 1 nM OGA, 100 μM 4-MUGlcNAc (Km), pH 6.4, 90 minutes at room temperature; 10-point dose-response starting from 20 μM
pIC50: −log10 of the molar value.

{"molecule": "CC(=O)Nc1ncc(CN2CCOCC(Cc3cc(C)nc(C)c3)C2)s1 (single isomer, unassigned) [Example 1-43 Peak 2]", "system.name": "Recombinant full length human OGA enzyme (Homo sapiens)", "pIC50": 7.42}
{"molecule": "CC(=O)Nc1ncc(CN2CCCOC(Cc3ncc(F)cn3)C2)s1 (racemic) [Example 1-38]", "system.name": "Recombinant full length human OGA enzyme (Homo sapiens)", "pIC50": 7.35}
{"molecule": "COc1cc(C[C@H]2CN(Cc3cnc(NC(C)=O)s3)CCO2)ccn1", "system.name": "Recombinant full length human OGA enzyme (Homo sapiens)", "pIC50": 4.96}
{"molecule": "CC(=O)Nc1ncc(CN2C[C@@H](Cc3ncc(F)cn3)N(C(C)=O)C[C@@H]2C)s1", "system.name": "Recombinant full length human OGA enzyme (Homo sapiens)", "pIC50": 5.02}
